- tested.target: integrin α4β7 (Homo sapiens, UniProt P13612+P26010)
- Sequence (P13612 34-977 limits assumed): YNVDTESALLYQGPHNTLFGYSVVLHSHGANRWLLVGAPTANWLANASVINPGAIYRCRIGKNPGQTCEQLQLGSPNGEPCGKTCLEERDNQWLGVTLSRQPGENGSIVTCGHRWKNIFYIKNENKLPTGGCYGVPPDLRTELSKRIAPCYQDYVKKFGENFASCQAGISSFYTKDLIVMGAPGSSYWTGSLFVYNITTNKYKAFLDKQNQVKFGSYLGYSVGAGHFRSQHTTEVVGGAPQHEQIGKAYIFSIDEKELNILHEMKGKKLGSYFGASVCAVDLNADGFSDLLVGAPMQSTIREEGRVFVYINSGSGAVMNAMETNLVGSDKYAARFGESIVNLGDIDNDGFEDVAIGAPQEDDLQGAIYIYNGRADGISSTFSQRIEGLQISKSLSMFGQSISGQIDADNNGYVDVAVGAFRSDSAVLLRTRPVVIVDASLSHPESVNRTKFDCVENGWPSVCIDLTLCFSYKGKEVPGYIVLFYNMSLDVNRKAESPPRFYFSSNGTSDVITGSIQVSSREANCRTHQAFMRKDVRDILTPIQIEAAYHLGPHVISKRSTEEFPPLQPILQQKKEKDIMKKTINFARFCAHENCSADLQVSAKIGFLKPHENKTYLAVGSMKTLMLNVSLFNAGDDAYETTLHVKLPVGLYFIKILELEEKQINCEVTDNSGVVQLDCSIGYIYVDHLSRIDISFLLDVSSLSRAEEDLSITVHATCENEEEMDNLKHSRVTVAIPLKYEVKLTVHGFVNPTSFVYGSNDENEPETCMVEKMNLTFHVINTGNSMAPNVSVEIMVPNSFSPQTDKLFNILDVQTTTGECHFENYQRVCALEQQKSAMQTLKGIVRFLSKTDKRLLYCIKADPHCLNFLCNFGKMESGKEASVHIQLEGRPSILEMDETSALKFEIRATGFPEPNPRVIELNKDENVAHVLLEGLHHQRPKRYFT
- Sequence (P26010 20-723 limits assumed): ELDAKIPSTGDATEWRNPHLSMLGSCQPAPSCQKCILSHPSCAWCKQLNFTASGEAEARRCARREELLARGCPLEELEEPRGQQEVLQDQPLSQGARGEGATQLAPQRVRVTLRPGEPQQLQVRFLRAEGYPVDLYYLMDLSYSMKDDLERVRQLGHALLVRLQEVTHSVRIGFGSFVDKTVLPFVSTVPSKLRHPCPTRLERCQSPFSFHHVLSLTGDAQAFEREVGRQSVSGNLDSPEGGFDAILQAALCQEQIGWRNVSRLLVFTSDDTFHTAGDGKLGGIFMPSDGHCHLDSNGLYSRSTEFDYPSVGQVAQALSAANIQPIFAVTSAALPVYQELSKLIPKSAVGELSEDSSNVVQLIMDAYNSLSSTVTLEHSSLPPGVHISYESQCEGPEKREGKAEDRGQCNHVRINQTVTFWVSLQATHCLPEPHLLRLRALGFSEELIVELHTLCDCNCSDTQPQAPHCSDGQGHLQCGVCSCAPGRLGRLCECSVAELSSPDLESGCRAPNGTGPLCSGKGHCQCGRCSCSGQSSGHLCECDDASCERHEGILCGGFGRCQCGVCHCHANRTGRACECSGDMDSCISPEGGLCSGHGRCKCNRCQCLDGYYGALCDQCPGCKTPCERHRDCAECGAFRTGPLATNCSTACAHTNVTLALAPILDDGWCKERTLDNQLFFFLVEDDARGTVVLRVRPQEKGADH
- test.name: Integrin α4β7—MAdCAM-1 competition assay (ELISA)
- Assay type: binding
- run.conditions: ratio a4b1 ELISA IC50 / a4b7 ELISA IC50
property.name: Selectivity ELISA

| compound | quantitative.readout |
| --- | --- |
| C=CCOc1ccc(C[C@@H]2NC(=O)[C@@H]3CCCN3[C@H](C(=O)NC(C)(C)C)[C@H](C)NC(=O)[C@H]([C@@H](C)O)NC(=O)[C@H](CC(=O)O)NC(=O)[C@H](CC(C)C)NC(=O)CNC2=O)cc1 [Compound 163] | 11.0 |
| CC(C)C[C@@H]1NC(=O)[C@@H](CCCCN)NC(=O)[C@H](Cc2ccc(-c3ccccc3)cc2)NC(=O)[C@@H]2CCCN2[C@H](C(=O)NC(C)(C)C)[C@H](C)NC(=O)[C@H]([C@@H](C)O)NC(=O)[C@H](CC(=O)O)NC1=O [Compound 110] | 21.3 |

###

- test.name: Aqueous solubility assay
- Assay type: physicochemical
- run.conditions: PBS pH 7.4, 4 h, room temperature; replicate 2
Each entry below carries its recorded Determined concentration Rep 2.

| structure.smiles | Determined concentration Rep 2 / µM |
| --- | --- |
| CC(C)C[C@@H]1NC(=O)[C@@H]2CCCN2C(=O)[C@@H]2CCCN2[C@H](C(=O)NC(C)(C)C)[C@H](C)NC(=O)[C@H]([C@@H](C)O)NC(=O)[C@H](CC(=O)O)NC1=O | 477.4 |
| CC(C)C[C@@H]1NC(=O)C2(Cc3ccccc3C2)NC(=O)[C@@H]2CCCN2[C@H](C(=O)NC(C)(C)C)[C@H](C)NC(=O)[C@H]([C@@H](C)O)NC(=O)[C@H](CC(=O)O)NC1=O | 885.9 |
| CC(C)C[C@@H]1NC(=O)[C@H](Cc2ccc(O)cc2)NC(=O)[C@H](C)NC(=O)[C@@H]2CCCN2[C@H](C(=O)NC(C)(C)C)[C@H](C)NC(=O)[C@H]([C@@H](C)O)NC(=O)[C@H](CC(=O)O)NC1=O | 1016.4 |
| CC(C)C[C@@H]1NC(=O)[C@@H](Cc2ccncc2)NC(=O)[C@@H]2CCCN2[C@H](C(=O)NC(C)(C)C)[C@H](C)NC(=O)[C@H]([C@@H](C)O)NC(=O)[C@H](CC(=O)O)NC1=O | 933.2 |
| CSCC[C@@H]1NC(=O)[C@@H]2CCCN2[C@H](C(=O)NC(C)(C)C)[C@H](C)NC(=O)[C@H]([C@@H](C)O)NC(=O)[C@H](CC(=O)O)NC(=O)[C@H](CC(C)C)NC1=O | 184.0 |
| CC(C)C[C@@H]1NC(=O)[C@H](Cc2ccc(O)cc2)NC(=O)[C@@H]2CCCN2[C@H](C(=O)NC(C)(C)C)[C@H](C)NC(=O)[C@H]([C@@H](C)O)NC(=O)[C@H](CC(=O)O)NC1=O | 897.3 |
| CC(C)C[C@@H]1NC(=O)CNC(=O)[C@H](Cc2ccc(O)cc2)NC(=O)[C@@H]2CCCN2[C@H](C(=O)NC(C)(C)C)[C@H](C)NC(=O)[C@H]([C@@H](C)O)NC(=O)[C@H](CC(=O)O)NC1=O | 230.6 |
| C=CCOc1ccc(C[C@@H]2NC(=O)[C@@H]3CCCN3[C@H](C(=O)NC(C)(C)C)[C@H](C)NC(=O)[C@H]([C@@H](C)O)NC(=O)[C@H](CC(=O)O)NC(=O)[C@H](CC(C)C)NC2=O)cc1 | 837.3 |
| CC(C)C[C@@H]1NC(=O)[C@H](CCCN)NC(=O)[C@@H]2CCCN2[C@H](C(=O)NC(C)(C)C)[C@H](C)NC(=O)[C@H]([C@@H](C)O)NC(=O)[C@H](CC(=O)O)NC1=O | 218.9 |

src = patent US11072616B2
